src = patent US20260347338A1

Target: human recombinant HPK1 (Homo sapiens)
Sequence (Q92918 whole entry): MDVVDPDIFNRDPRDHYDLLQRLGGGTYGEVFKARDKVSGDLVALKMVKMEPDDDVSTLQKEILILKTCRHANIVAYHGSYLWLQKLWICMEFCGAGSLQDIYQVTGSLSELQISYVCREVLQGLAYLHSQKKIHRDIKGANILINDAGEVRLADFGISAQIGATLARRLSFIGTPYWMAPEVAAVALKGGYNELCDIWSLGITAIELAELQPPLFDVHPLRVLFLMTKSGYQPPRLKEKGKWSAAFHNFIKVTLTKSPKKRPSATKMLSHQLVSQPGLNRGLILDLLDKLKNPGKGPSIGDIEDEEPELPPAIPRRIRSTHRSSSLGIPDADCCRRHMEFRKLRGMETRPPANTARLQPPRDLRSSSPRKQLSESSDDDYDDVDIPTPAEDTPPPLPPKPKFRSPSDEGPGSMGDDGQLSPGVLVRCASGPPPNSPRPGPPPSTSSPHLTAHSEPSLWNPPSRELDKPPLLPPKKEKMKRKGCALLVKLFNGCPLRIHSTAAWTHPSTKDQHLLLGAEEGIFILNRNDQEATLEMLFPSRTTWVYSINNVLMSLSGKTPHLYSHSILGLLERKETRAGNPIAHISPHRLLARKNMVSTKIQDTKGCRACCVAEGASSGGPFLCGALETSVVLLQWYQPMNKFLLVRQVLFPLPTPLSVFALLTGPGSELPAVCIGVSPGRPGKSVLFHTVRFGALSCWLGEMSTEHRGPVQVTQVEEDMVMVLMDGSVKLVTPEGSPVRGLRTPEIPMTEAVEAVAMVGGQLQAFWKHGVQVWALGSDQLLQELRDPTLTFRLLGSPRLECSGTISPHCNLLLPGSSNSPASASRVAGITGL
Test: Inhibitory activity against human recombinant HPK1 (TR-FRET)
Details: ULight-p70S6K peptide, ATP at Km, room temperature, 1 hour, 0.32 to 1000 nM compound
Structures can show the parent of a compound that is named as a salt.
measuredQuantity: IC50

These recorded examples may help you get a feel for the data.
molecule	IC50
COc1cc(F)cc(F)c1-c1nccc(Nc2cc(N3CCC[C@H](N)C3)c(-c3cnn(CC(F)F)c3)cn2)n1 [Example 158, hydrochloride]	≤ 10 nM
O[C@H]1CCCN(c2cc(Nc3ccnc(-c4ccc5nccnc5c4)n3)ncc2-c2cnn(C3CCOCC3)c2)C1 [Example 28]	10 to 50 nM
COc1cc(F)cc(F)c1-c1nccc(Nc2cc(N3CCC[C@H](O)C3)c(-c3cnn(CC(F)F)c3)cn2)n1 [Example 172]	≤ 10 nM

Challenge: Suppose we examine the molecule COc1cccc(F)c1-c1nccc(Nc2cc(N3CCC[C@H](O)C3)c(-c3cnn(C4CCOC4)c3)cn2)n1 (stereo partly shown) [Example 14] ; what IC50 value has been reported?
Response given: ≤ 10 nM

Challenge: Suppose we examine the molecule COc1cc(CO)cc(F)c1-c1nccc(Nc2cc(N3CCC[C@H](N)C3)c(C#CC3CCOCC3)cn2)n1 [Example 103, hydrochloride] ; what IC50 value has been reported?
Response given: ≤ 10 nM

Challenge: Suppose we examine the molecule COc1cccc(F)c1-c1nccc(Nc2cc(N3CC[C@@H](N)[C@@H](F)C3)c(-c3cnn(C(F)F)c3)cn2)n1 [Example 308, hydrochloride] ; what IC50 value has been reported?
Response given: ≤ 10 nM

Challenge: Suppose we examine the molecule COCCOc1ccc(-c2cnc(Nc3ccnc(-c4c(F)cccc4OC)n3)cc2N2CCC[C@H](N)C2)cn1 [Example 230] ; what IC50 value has been reported?
Response given: ≤ 10 nM

Challenge: Suppose we examine the molecule COc1cccc(F)c1-c1nccc(Nc2cc(N3CCCC(CF)C3)c(-c3cnn(C4CCOCC4)c3)cn2)n1 (stereo not shown) [Example 85] ; what IC50 value has been reported?
Response given: ≤ 10 nM
